- measured-target: T1, T11 (Tn-MUC1) (PAPGSTAPPAHGVT(α-GalNAc)SAPDT(α-GalNAc)RPAPG-OH)
- T1 peptide: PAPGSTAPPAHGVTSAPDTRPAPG
- test-description: glycopeptide array
assay-readout: EC50 (µg/mL)

INSERT INTO assay_data (binder, reported_value) VALUES
  ('62 (antibody, V domains shown) VH: QVQLVESGAEVKKPGASVKVSCKASGYSFTSYYIQWVRQAPGQGLEWLAVINPIDGSTNYAQKFQGRVTVTRDTSTSTVYMELSSLRSEDTAVYYCARDYMRGFVVFDYWGQGTLVTVSS', 0.097),
  ('138 (antibody, V domains shown) VH: QVQLVQSGAEVKKPGASVRVSCKASGYTFINYYLQWVRQAPGQGLEWMGTINPFDGSTHYAQKFQGRVTMTRDTSTSTVYMELSSLRSEDTAVYYCARDSMIGYVLFDYWGQGTLVTVSS', 0.123),
  ('158 (antibody, V domains shown) VH: QVQLVQSGAEVKKPGASVKVSCKASGYTFTSYYMHWVRQAPGQGLEWMGVINPFDGSTNYAQKFQGRVTVTRDTATTTVFMDLSSLRSEDTAVYYCARDNMLGYVLFDYWGQGTLVTVSS', 0.235),
  ('126 (antibody, V domains shown) VH: QVQLVQSGAEVKKPGASVKVSCKASGYTFNRYYLHWVRQAPGQGLEWMGVINPYDGSTNYAQKFRGRVTMTRDTSTNTVYMELSSLRSEDTAVYFCARDAMEGDSYFDNWGQGTTVTVSS', 0.195),
  ('37 (antibody, V domains shown) VH: QVQLVQSGAEVKKPGASVTVSCKTSGYTFTSYYIHWLRQAPGQGLEWMGVINPFGGATNYAQKFQGRVTMTRDTSTITVYMELSSLRSEDTAVYYCARDAMGGDSHFDHWGRGTLVTVSS', 0.158),
  ('122 (antibody, V domains shown) VH: EVQLLESGAEVKKPGASVKVSCKASGYTFNRYYIHWVRQAPGQGLEWMGVINPYDGSTDYAQKFRDRITMTRDTSTNTVYMDLSSLRSEDTAVYFCARDAMEGDSYFDNWGRGTLVTVSS', 0.133);
